Sourced from patent US11878975B2

- TARGET: human TLR7 (Homo sapiens)
- Sequence (Q9NYK1 27-1049): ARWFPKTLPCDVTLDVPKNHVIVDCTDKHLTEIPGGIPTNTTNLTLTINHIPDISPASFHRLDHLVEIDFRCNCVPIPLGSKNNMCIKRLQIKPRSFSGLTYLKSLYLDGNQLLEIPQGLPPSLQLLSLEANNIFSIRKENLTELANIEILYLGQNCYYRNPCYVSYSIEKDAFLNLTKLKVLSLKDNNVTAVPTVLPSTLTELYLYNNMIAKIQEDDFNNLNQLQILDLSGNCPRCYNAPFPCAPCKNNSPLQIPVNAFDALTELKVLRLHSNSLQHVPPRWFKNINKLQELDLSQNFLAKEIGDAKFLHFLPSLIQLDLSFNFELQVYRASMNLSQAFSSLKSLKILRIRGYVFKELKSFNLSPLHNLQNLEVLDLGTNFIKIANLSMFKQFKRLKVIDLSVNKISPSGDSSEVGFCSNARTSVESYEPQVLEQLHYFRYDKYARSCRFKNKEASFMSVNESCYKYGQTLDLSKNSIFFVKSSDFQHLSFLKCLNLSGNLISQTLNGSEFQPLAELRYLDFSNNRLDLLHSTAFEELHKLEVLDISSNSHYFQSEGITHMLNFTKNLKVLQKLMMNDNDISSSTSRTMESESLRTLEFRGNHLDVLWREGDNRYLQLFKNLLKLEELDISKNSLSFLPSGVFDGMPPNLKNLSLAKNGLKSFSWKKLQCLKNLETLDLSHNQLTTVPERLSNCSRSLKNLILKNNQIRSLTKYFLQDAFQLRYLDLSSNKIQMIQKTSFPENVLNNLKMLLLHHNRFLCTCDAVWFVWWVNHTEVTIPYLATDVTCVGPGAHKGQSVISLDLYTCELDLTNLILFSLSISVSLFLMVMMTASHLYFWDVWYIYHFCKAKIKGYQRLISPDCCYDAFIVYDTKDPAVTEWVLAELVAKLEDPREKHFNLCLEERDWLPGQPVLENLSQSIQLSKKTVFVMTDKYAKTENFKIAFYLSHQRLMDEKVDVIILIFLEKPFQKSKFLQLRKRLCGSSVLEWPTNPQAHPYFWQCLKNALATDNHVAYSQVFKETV
- MEASUREMENT_DESCRIPTION: TLR7 inhibition reporter assay (HEK-Blue cells, SEAP reporter, gardiquimod stimulation)
- CONDITION_DETAILS: HEK-Blue cells overexpressing human TLR7, SEAP reporter, gardiquimod 7.5 μM
pIC50: −log10 of the molar value.
# Lookup of reported pIC50 keyed by entry

{"columns": ["COMPOUND", "pIC50"],
 "data": [
  ["COc1cc(-c2[nH]c3ccc(C4CCCN(CC(=O)N(C)C)C4)cc3c2C(C)C)cn2ncnc12 (stereo not drawn) [Example 222]", 8.70],
  ["Cc1cc(-c2[nH]c3ccc(C4CN(CCS(C)(=O)=O)C(C)(C)CO4)cc3c2C(C)C)cn2ncnc12 (stereo not drawn) [Example 384]", 7.89],
  ["Cc1c(-c2[nH]c3ccc(C4CC(N)C4)cc3c2C(C)C)cn(C)c(=O)c1C (stereo not drawn) [Example 492]", 8.40],
  ["Cc1cc(-c2[nH]c3ccc(C4CCCN(C(=O)[C@@H]5CCN5)C4)cc3c2C(C)C)cc(C)n1 (stereo partly drawn) [Example 220]", 9.00],
  ["CNC(=O)CN1CC(c2ccc3[nH]c(-c4cn5ncnc5c(C)c4C)c(C(C)C)c3c2)OCC1(C)C (stereo not drawn) [Example 389]", 7.66],
  ["Cc1c(-c2[nH]c3ccc(C4CC5CN(CC(=O)N(C)C)CC5C4)cc3c2C(C)C)cn2ncnc2c1C (stereo not drawn) [Example 507]", 8.52]
]}
